# TARGET_OF_ASSAY: Cellular tumor antigen p53 (Homo sapiens) (UniProt P04637)
# Sequence (P04637 whole entry, looked up): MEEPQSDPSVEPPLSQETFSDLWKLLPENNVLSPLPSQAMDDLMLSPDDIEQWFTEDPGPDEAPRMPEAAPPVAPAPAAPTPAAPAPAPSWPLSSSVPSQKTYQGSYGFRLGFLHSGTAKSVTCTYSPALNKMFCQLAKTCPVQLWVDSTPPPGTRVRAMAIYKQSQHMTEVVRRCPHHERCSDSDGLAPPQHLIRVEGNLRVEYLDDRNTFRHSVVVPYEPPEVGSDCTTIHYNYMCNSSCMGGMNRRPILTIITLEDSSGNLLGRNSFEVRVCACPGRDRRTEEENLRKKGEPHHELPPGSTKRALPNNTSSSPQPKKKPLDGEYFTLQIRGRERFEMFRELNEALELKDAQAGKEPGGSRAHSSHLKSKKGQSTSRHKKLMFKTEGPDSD
# ASSAY_SUMMARY: Primary qHTS for small molecule compounds that upregulate eGFP-tagged delta133p53alpha (in N-terminal) cells. (AID 2060322);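 also: cells pre-induced with doxycycline then dosed without doxycycline; series mostly up to about 56 µM; 0% = DMSO vehicle and 100% = reference activator; nearly all actives have a fitted effect of over 75% in size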
# RECORDED_CONDITIONS: NCI-H358 eGFP-delta133p53alpha fluorescence, 24 h; active compounds read high
# Description: Assay Development and Screening Technology National Center for Advancing Translational Sciences (NCATS), National Institute of Health (NIH), Rockville, Maryland Cellular senescence (CS) is one of the hallmarks of aging and age-related diseases. […] Here we report the development and validation of a cell-based quantitative high throughput screening (qHTS) assay in 1,536-well format. […]
Results filed as inconclusive are left out.
# activation per record follows

{"MOLECULE": "Cc1cn([C@@H]2O[C@H](CO)[C@@H](O)[C@H]2F)c(=O)[nH]c1=O", "TARGET_OF_ASSAY": "Cellular tumor antigen p53 (Homo sapiens) (UniProt P04637)", "U": "%", "activation": 5.67}
{"MOLECULE": "CCCCC(C)(C)[C@H](O)C=C[C@H]1[C@H](O)CC(=O)[C@H]1CC=CCCCC(=O)O", "TARGET_OF_ASSAY": "Cellular tumor antigen p53 (Homo sapiens) (UniProt P04637)", "U": "%", "activation": 1.38}
{"MOLECULE": "NC(=O)c1ccc(-c2nc(-c3ccc4c(c3)OCCO4)c(-c3ccccn3)[nH]2)cc1", "TARGET_OF_ASSAY": "Cellular tumor antigen p53 (Homo sapiens) (UniProt P04637)", "U": "%", "activation": -1.5}
{"MOLECULE": "N[C@H]1C[C@H]1c1ccc(-c2cccc(O)c2)cc1", "TARGET_OF_ASSAY": "Cellular tumor antigen p53 (Homo sapiens) (UniProt P04637)", "U": "%", "activation": 1.67}
{"MOLECULE": "Cn1c(=O)c(Oc2ccc(F)cc2F)cc2cnc(NC3CCOCC3)nc21", "TARGET_OF_ASSAY": "Cellular tumor antigen p53 (Homo sapiens) (UniProt P04637)", "U": "%", "activation": -33.7}
{"MOLECULE": "CCc1ccc(C=C2SC(=S)NC2=O)cc1", "TARGET_OF_ASSAY": "Cellular tumor antigen p53 (Homo sapiens) (UniProt P04637)", "U": "%", "activation": 32.5}
{"MOLECULE": "N#C/C(=C\\c1ccc(-c2cc(Cl)ccc2Cl)o1)C(=O)Nc1cccc2ncccc12", "TARGET_OF_ASSAY": "Cellular tumor antigen p53 (Homo sapiens) (UniProt P04637)", "U": "%", "activation": -37.8}
{"MOLECULE": "CC(=O)Oc1ccc(C)cc1", "TARGET_OF_ASSAY": "Cellular tumor antigen p53 (Homo sapiens) (UniProt P04637)", "U": "%", "activation": -17.5}
{"MOLECULE": "c1ccc2c(CC3=NCCN3)cccc2c1", "TARGET_OF_ASSAY": "Cellular tumor antigen p53 (Homo sapiens) (UniProt P04637)", "U": "%", "activation": -10}
{"MOLECULE": "CC=C(C)C(=O)O[C@H]1C(C)=C[C@]23C(=O)[C@@H](C=C(CO)[C@@H](O)[C@]12O)[C@H]1[C@@H](C[C@H]3C)C1(C)C", "TARGET_OF_ASSAY": "Cellular tumor antigen p53 (Homo sapiens) (UniProt P04637)", "U": "%", "activation": 20.2}
{"MOLECULE": "COC(=O)CC(C)(O)CC(=O)OCc1ccc(O[C@@H]2O[C@H](CO)[C@@H](O)[C@H](O)[C@H]2O)cc1 (stereo not given in full)", "TARGET_OF_ASSAY": "Cellular tumor antigen p53 (Homo sapiens) (UniProt P04637)", "U": "%", "activation": -5.34}
{"MOLECULE": "CCOc1c2c(c(OCC)c3ccccc13)C(=O)N(c1ccc(CC(=O)NS(=O)(=O)c3ccccc3)cc1)C2", "TARGET_OF_ASSAY": "Cellular tumor antigen p53 (Homo sapiens) (UniProt P04637)", "U": "%", "activation": -25.3}
{"MOLECULE": "COc1c(C)c2c(c(O)c1C/C=C(\\C)CCC(=O)OCCN1CCOCC1)C(=O)OC2", "TARGET_OF_ASSAY": "Cellular tumor antigen p53 (Homo sapiens) (UniProt P04637)", "U": "%", "activation": -10.7}
{"MOLECULE": "C/C(=N\\O)c1ccc(OCC(=O)N2CCCCC2)cc1", "TARGET_OF_ASSAY": "Cellular tumor antigen p53 (Homo sapiens) (UniProt P04637)", "U": "%", "activation": 3.35}
{"MOLECULE": "CNC(=O)c1cccc(-c2ccc3c(N4CCOC[C@H]4C)nc(N4CCOC[C@H]4C)nc3n2)c1", "TARGET_OF_ASSAY": "Cellular tumor antigen p53 (Homo sapiens) (UniProt P04637)", "U": "%", "activation": 19.5}
{"MOLECULE": "C/C(=C\\CCC(C)CCO)C(=O)OC[C@H]1O[C@@H](O[C@@H]2OC=C(C(=O)O)[C@H]3CC[C@](C)(O)[C@@H]23)C(O)[C@@H](O)C1O (stereo not given in full)", "TARGET_OF_ASSAY": "Cellular tumor antigen p53 (Homo sapiens) (UniProt P04637)", "U": "%", "activation": -20.5}
{"MOLECULE": "COC(=O)CC1(O)C(=O)Nc2ccccc21 (stereo not given)", "TARGET_OF_ASSAY": "Cellular tumor antigen p53 (Homo sapiens) (UniProt P04637)", "U": "%", "activation": -1.79}
{"MOLECULE": "COc1cc(C(=O)OC[C@@]2(O)CO[C@@H](O[C@H]3[C@H](Oc4ccc(C(=O)O)cc4OC)O[C@H](CO)[C@@H](O)[C@@H]3O)[C@@H]2O)ccc1O", "TARGET_OF_ASSAY": "Cellular tumor antigen p53 (Homo sapiens) (UniProt P04637)", "U": "%", "activation": -13.7}
{"MOLECULE": "CC1(C)C(=O)CCC2(C)C1C(O)C=C1COC(=O)C12O (stereo not given)", "TARGET_OF_ASSAY": "Cellular tumor antigen p53 (Homo sapiens) (UniProt P04637)", "U": "%", "activation": 25.2}
{"MOLECULE": "Nc1ncnc2c1ncn2[C@@H]1O[C@H](CO)[C@@H](O)[C@@H]1O", "TARGET_OF_ASSAY": "Cellular tumor antigen p53 (Homo sapiens) (UniProt P04637)", "U": "%", "activation": 23.2}

All values here come from PubChem BioAssay (NCATS).
